Hey, just so you know, these numbers are from ChEMBL document CHEMBL1201862.

- MEASUREMENT TARGET: Carboxy-terminal domain RNA polymerase II polypeptide A small phosphatase 1 (Homo sapiens)
- Sequence (Q9GZU7 whole entry): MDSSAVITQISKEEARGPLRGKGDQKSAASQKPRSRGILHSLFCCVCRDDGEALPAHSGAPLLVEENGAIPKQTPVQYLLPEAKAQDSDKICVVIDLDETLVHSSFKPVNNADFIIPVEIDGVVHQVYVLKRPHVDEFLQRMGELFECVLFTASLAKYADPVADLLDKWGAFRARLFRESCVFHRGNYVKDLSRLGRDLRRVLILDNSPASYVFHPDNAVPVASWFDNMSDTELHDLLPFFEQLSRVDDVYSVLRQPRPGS
- PROCEDURE DETAILS: CTDSP1 inhibitors, concentration-response, biochemical, absorbance readout, ultra-high-throughput screen actives (AID 540297)
- Format: functional
Calls of active or inactive are those of the source. Cut-off read from the data, not from the text of the source: actives have a measured IC50 and inactives only a lower limit.
A collection of compounds and their measured IC50

SAMPLE SMILES: O=C(NNC(=O)c1cc2cc3ccccc3nc2s1)c1cccc(C(F)(F)F)c1
IC50: 5.86 µM (active)
//
SAMPLE SMILES: O=C(COc1ccc(-n2cnnn2)cc1)Nc1ccccc1Cl
IC50: 11.4 µM (active)
//
SAMPLE SMILES: O=C1CC(=O)NC(SCC(=O)Nc2ccccc2[N+](=O)[O-])=N1
IC50: 4.04 µM (active)
//
SAMPLE SMILES: NS(=O)(=O)c1ccc(CNC(=O)Cc2cccs2)cc1
IC50: 4.18 µM (active)
//
SAMPLE SMILES: Cc1cccc(Nc2nn3c(=O)c4ccccc4nc3s2)c1
IC50: 3.16 µM (active)
//
SAMPLE SMILES: CCCc1ccc(C(=O)NC(=O)c2ccccc2O)cc1
IC50: 8.68 µM (active)
